Items are presented alongside their recorded pEC50.
- Tested on: HIV-1NL4–3
- test-description: Anti-HIV activity against HIV-1NL4–3 infected MT-4 cells
- Format: cell-based
- test-parameters: read-out: EC50 (concentration of the test sample that was effective to suppress HIV replication by 50%), '-' = No activity (footnote b)
Please treat pEC50 as minus the base-10 logarithm of the molar concentration.

// solved cases for pEC50 follow
- compound: "C#CCOC(=O)[C@]12CC[C@@H](C(=C)C)[C@@H]1[C@H]1CC[C@@H]3[C@@]4(C)CC[C@H](OC(=O)CC(C)(C)C(=O)O)C(C)(C)[C@@H]4CC[C@@]3(C)[C@]1(C)CC2"
  pEC50: 7.17
- compound: "C=C(C)C1CCC2(COC(=O)CC(C)(C)C(=O)O)CCC3(C)C(CCC4C5(C)CCC(OCc6cn(C7CC(n8cc(C)c(=O)[nH]c8=O)OC7CO)nn6)C(C)(C)C5CCC43C)C12 (stereo not drawn)"
  pEC50: 6.46

IN: State its pEC50: `C=C(C)[C@@H]1CC[C@]2(C(=O)OCc3cn([C@H]4C[C@H](n5cc(C)c(=O)[nH]c5=O)O[C@@H]4CO)nn3)CC[C@]3(C)[C@H](CC[C@@H]4[C@@]5(C)CC[C@H](OC(=O)CC(C)(C)C(=O)O)C(C)(C)[C@@H]5CC[C@]43C)[C@@H]12`
OUT: 7.00

Recorded values, source paper PMC3375835.
